Test system: DU-145 prostate
Experiment: NCI-60 one-dose screen, 48 h (100 = growth as untreated, 0 = no growth, -100 = all killed)
Settings: 10 µM unless noted
Compounds without any hit were thinned out: in the full panel of roughly 83,000, 20% have a hit.
Overview of recorded growth for various molecules
State just the number; it will be interpreted in %.

Task item: Which growth is reported for this molecule? O=C(NC1CC1)c1cc2n(n1)CC(c1ccccc1)N2 (configuration not stated)
Reply: 107

***
Task item: Which growth is reported for this molecule? "COc1ccc(NC(=O)c2ccc3c(c2)nc(-c2ccc(Cl)cc2)n3-c2cc(C(C)(C)C)[nH]n2)cc1"
Reply: 90.2

Task item: Which growth is reported for this molecule? "O=C1C(Br)=C(c2ccccc2)C(=O)C(Br)=C1c1ccccc1"
Reply: 105

Task item: Which growth is reported for this molecule? "CC(C)N1CCN(c2ccc(OC[C@H]3CO[C@](Cn4cncn4)(c4ccc(Cl)cc4Cl)O3)cc2)CC1"
Reply: 111

---

Tested on: 786-0 renal
Assay: NCI-60 one-dose screen, 48 h (100 = growth as untreated, 0 = no growth, -100 = all killed)
Conditions: 10 µM unless noted
Compounds without any hit were thinned out: in the full panel of roughly 83,000, 20% have a hit.
// NB: equality with 90% counts as false; only growth strictly below is true

Examples with answers:
Task item: Determine whether this molecule shows growth lower than 90% (ties excluded): COc1cccc(C2C3=C(COC3=O)N(CCO)c3cc4c(cc32)CCC4)c1 (centres undefined)
Reply: true

Task item: Determine whether this molecule shows growth lower than 90% (ties excluded): "COc1cc(NC(=O)COc2ccccc2)c(C(N)=O)cc1OC"
Reply: true

Task item: Determine whether this molecule shows growth lower than 90% (ties excluded): "COC(=O)[C@@H]1CCCN1C(=O)[C@@H]1CCCN1C(=O)[C@@H](Cc1c[nH]c2ccccc12)NC(=S)Nc1cc(C(F)(F)F)cc(C(F)(F)F)c1"
Reply: true

Task item: Determine whether this molecule shows growth lower than 90% (ties excluded): "Nc1cc(Br)c(-c2nnc(CCC(=O)c3nc4ccccc4[nH]3)o2)c(Br)c1"
Reply: true

Task item: Determine whether this molecule shows growth lower than 90% (ties excluded): "CCN1CCN(c2nc3ccccc3c3c(=O)c4cc(F)ccc4sc23)CC1"
Reply: true

Alright, here's another molecule for you.
Task item: Determine whether this molecule shows growth lower than 90% (ties excluded): "Cc1nc2cc(Nc3nc(NCCO)nc(Nc4ccc(F)cc4)n3)ccc2n1Cc1ccccc1"
Reply: false

---

Tested on: SF-295 CNS
Test: NCI-60 one-dose screen, 48 h (100 = growth as untreated, 0 = no growth, -100 = all killed)
Conditions: 10 µM unless noted
Compounds without any hit were thinned out: in the full panel of roughly 83,000, 20% have a hit.
Outcome: Criterion met for growth of at least 90%; Criterion not met for anything lower.

Examples with answers:
Task item: Is reported growth greater than or equal to 90% here: "N#Cc1ccc(C(F)(F)F)nc1N1CCC(C(=O)Nc2ccc(Cl)cc2)CC1"
Reply: Criterion not met

Task item: Is reported growth greater than or equal to 90% here: "Clc1ccccc1Nc1ccc2nnc(-c3ccncc3)n2n1"
Reply: Criterion met

Task item: Is reported growth greater than or equal to 90% here: "COC(=O)c1c2c(c(C)[n+]([O-])c1C)C(=O)C(NCc1ccc(O)cc1)=CC2=O"
Reply: Criterion not met

Task item: Is reported growth greater than or equal to 90% here: "OC[C@@H](O)[C@@H](O)CO"
Reply: Criterion met

Task item: Is reported growth greater than or equal to 90% here: C=C(C)CCCC(C)CC#N (configuration not stated)
Reply: Criterion met

Task item: Is reported growth greater than or equal to 90% here: "N#Cc1c(O)c2c(c(O)c1C#N)C(=O)c1ccccc1C2=O"
Reply: Criterion not met

Task item: Is reported growth greater than or equal to 90% here: "O=c1nc(NO)[nH]c(=O)n1Cc1ccccc1"
Reply: Criterion met

Task item: Is reported growth greater than or equal to 90% here: "COc1ccc2c(c1)c(=O)oc1c(C)c(OCC(C)=O)ccc12"
Reply: Criterion met

***
Task item: Is reported growth greater than or equal to 90% here: "COC(=O)[C@@]12CC[C@@H](C)[C@]3(C[C@@H](c4ccoc4)OC3=O)[C@H]1CC[C@@H]1O[C@@]12C"
Reply: Criterion met

Task item: Is reported growth greater than or equal to 90% here: "COc1ccccc1/C=C/C(=O)/C=C/c1ccccc1O"
Reply: Criterion not met

Task item: Is reported growth greater than or equal to 90% here: "Cc1ccc(-c2c3c(N)c4c(nc3nc3c2c(C)nn3-c2ccccc2)CCCC4)cc1"
Reply: Criterion met

Task item: Is reported growth greater than or equal to 90% here: "CCCCCCCC/C=C\CCCCCCCCOc1cccc(CC(=O)NCC[N+]2(C)CCCC2)c1"
Reply: Criterion met

Task item: Is reported growth greater than or equal to 90% here: "Nc1nc(N)c(C=Nc2ccc(Br)cc2)c(Nc2ccc(Br)cc2)n1"
Reply: Criterion not met

Task item: Is reported growth greater than or equal to 90% here: "NC(=O)c1nc2c([nH]c1=O)CCCC2"
Reply: Criterion met

Task item: Is reported growth greater than or equal to 90% here: "Clc1ccc(C2=Nc3cccc4cccc(c34)N2)cc1Cl"
Reply: Criterion met

Task item: Is reported growth greater than or equal to 90% here: "CNc1ccc(Br)cc1-c1n[nH]c(=O)[nH]c1=O"
Reply: Criterion not met

Task item: Is reported growth greater than or equal to 90% here: "CCCCC(=O)N/N=C/c1cc(I)cc(I)c1O"
Reply: Criterion not met

Task item: Is reported growth greater than or equal to 90% here: "CN1CCN(C(=O)OCCOCCOC(=O)N2CCN(C)CC2)CC1"
Reply: Criterion not met

# credit: PubChem BioAssay (NCI)
